# Tested on: IGROV1 complex spheroids (HUVEC, MSC), viability % test/control
# assay_overview: Anticancer human tumor IGROV1 cell line growth inhibition [GQUAD];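 also: spheroids exposed to compounds for 7 days before readout; 100% = DMSO vehicle control viability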
# run_parameters: second compound 0.316 µM; first compound 1 µM; stronger effect = lower value

molecule	viability, T/C, %
CC(=O)O[C@H]1C(=O)[C@@]2(C)[C@H]([C@H](OC(=O)c3ccccc3)[C@]3(O)C[C@H](OC(=O)[C@H](O)[C@@H](NC(=O)c4ccccc4)c4ccccc4)C(C)=C1C3(C)C)[C@]1(OC(C)=O)CO[C@@H]1C[C@@H]2O + CN(C)c1ccc(Nc2c3ccc(NC(=O)CCN4CCCC4)cc3nc3cc(NC(=O)CCN4CCCC4)ccc23)cc1	5.16
CC1COCCN1c1cc(C2(S(C)(=N)=O)CC2)nc(-c2ccnc3[nH]ccc23)n1 (stereo not drawn) + Cc1cnc(CNC(=O)c2c(=O)c3ccc(N4CCCN(C)CC4)nc3n3c2sc2ccccc23)cn1	7.83
C=CC(=O)N1CCN(c2nc(=O)n(-c3c(C)ccnc3C(C)C)c3nc(-c4c(O)cccc4F)c(F)cc23)C(C)C1 (stereo not drawn) + Cc1cnc(CNC(=O)c2c(=O)c3ccc(N4CCCN(C)CC4)nc3n3c2sc2ccccc23)cn1	33.4
CC1COCCN1c1cc(-c2ccnn2C)c2ccnc(-c3ccn[nH]3)c2n1 (stereo not drawn) + Cc1[nH]c2ccc(F)cc2c1-c1nc2c3cccnc3c3ncccc3c2[nH]1	5.18
CC(C)n1c(=O)n(C)c2cnc3cc(F)c(-c4ccc(OCCCN5CCCCC5)nc4)cc3c21 + Cc1[nH]c2ccc(F)cc2c1-c1nc2c3cccnc3c3ncccc3c2[nH]1	59
O=C(c1cc(Cc2n[nH]c(=O)c3ccccc23)ccc1F)N1CCN(C(=O)C2CC2)CC1 + Cc1cnc(CNC(=O)c2c(=O)c3ccc(N4CCCN(C)CC4)nc3n3c2sc2ccccc23)cn1	23.5
COc1ncnc(C2CC2)c1-c1ncc2cnn(Cc3ccc(-c4nc(C(F)(F)F)cn4C(C)C)cc3)c2n1 + Cc1[nH]c2ccc(F)cc2c1-c1nc2c3cccnc3c3ncccc3c2[nH]1	62.4
O=C(NO)c1cnc(N2CCN(S(=O)(=O)c3ccc4ccccc4c3)CC2)nc1 + Cc1cnc(CNC(=O)c2c(=O)c3ccc(N4CCCN(C)CC4)nc3n3c2sc2ccccc23)cn1	0.05

----------
# System: IGROV1 complex spheroids (HUVEC, MSC), viability % test/control
# assay_overview: Anticancer human tumor IGROV1 cell line growth inhibition [GQUAD];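 also: spheroids exposed to compounds for 7 days before readout; 100% = DMSO vehicle control viability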
# run_parameters: second compound 1 µM; first compound 0.000999 µM; stronger effect = lower value

compound	value_units	viability, T/C
CCc1c2c(nc3ccc(O)cc13)-c1cc3c(c(=O)n1C2)COC(=O)[C@]3(O)CC + Cc1[nH]c2ccc(F)cc2c1-c1nc2c3cccnc3c3ncccc3c2[nH]1	%	4.92
CCc1c2c(nc3ccc(O)cc13)-c1cc3c(c(=O)n1C2)COC(=O)[C@]3(O)CC + Cc1cnc(CNC(=O)c2c(=O)c3ccc(N4CCCN(C)CC4)nc3n3c2sc2ccccc23)cn1	%	10.6
CC[C@@]1(O)C(=O)OCc2c1cc1n(c2=O)Cc2cc3c(CN(C)C)c(O)ccc3nc2-1 + Cc1cnc(CNC(=O)c2c(=O)c3ccc(N4CCCN(C)CC4)nc3n3c2sc2ccccc23)cn1	%	21.8
Cn1ncnc1[C@H]1c2n[nH]c(=O)c3cc(F)cc(c23)N[C@@H]1c1ccc(F)cc1 + Cc1[nH]c2ccc(F)cc2c1-c1nc2c3cccnc3c3ncccc3c2[nH]1	%	5.11
Cc1[nH]c2ccccc2c1CCNCc1ccc(/C=C/C(=O)NO)cc1 + Cc1[nH]c2ccc(F)cc2c1-c1nc2c3cccnc3c3ncccc3c2[nH]1	%	3.99
Cc1[nH]c2ccccc2c1CCNCc1ccc(/C=C/C(=O)NO)cc1 + Cc1cnc(CNC(=O)c2c(=O)c3ccc(N4CCCN(C)CC4)nc3n3c2sc2ccccc23)cn1	%	15.4
Cc1[nH]c2ccccc2c1CCNCc1ccc(/C=C/C(=O)NO)cc1 + CN(C)c1ccc(Nc2c3ccc(NC(=O)CCN4CCCC4)cc3nc3cc(NC(=O)CCN4CCCC4)ccc23)cc1	%	65.2

FYI, the data here is from PubChem BioAssay AID2060486.
